These data points were gathered from patent US20210087281A1.

- EXPERIMENTAL_SYSTEM: native mouse MET on living cells (mouse, UniProt P16056 25-1379)
- MEASUREMENT_PROTOCOL: cell-based or functional assay
ASSAY_METRIC: scatter score 0-4, MLP29, 0.012 nM (score)

BINDER: 71D4 chimeric llama-human IgG1 mAb (antibody, V domains shown, llama VH on human IgG1 CH1-CH2-CH3, llama VL on human lambda CL) VH: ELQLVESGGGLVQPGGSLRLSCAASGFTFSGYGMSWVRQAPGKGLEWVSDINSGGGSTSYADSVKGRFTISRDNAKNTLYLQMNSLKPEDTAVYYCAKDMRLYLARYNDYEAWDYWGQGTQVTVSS VL: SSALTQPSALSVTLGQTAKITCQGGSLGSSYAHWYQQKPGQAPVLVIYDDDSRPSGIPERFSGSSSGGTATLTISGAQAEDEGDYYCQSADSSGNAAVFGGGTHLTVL
TEST_RESULT: 0
--
BINDER: 76H10 chimeric llama-human IgG1 mAb (antibody, V domains shown, llama VH on human IgG1 CH1-CH2-CH3, llama VL on human lambda CL) VH: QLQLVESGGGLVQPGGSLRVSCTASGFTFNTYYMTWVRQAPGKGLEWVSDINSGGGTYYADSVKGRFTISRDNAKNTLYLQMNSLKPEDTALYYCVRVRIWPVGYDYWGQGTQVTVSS VL: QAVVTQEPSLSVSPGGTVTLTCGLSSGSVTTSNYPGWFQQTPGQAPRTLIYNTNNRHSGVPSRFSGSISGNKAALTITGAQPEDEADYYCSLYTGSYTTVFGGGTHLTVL
TEST_RESULT: 0
--
BINDER: 72F8 chimeric llama-human IgG1 mAb (antibody, V domains shown, llama VH on human IgG1 CH1-CH2-CH3, llama VL on human lambda CL) VH: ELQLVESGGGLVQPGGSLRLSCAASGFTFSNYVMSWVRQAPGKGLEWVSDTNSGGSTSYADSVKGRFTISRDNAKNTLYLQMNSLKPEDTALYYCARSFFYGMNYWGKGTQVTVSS VL: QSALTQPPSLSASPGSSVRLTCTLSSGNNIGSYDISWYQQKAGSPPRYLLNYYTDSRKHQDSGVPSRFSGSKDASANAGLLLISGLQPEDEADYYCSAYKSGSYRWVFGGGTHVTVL
TEST_RESULT: 0
